tgt: Anti-CD28 Fab (SEQ ID NOs: 696, 697)
Sequence (VH, as listed by the source, chain 1 of 2): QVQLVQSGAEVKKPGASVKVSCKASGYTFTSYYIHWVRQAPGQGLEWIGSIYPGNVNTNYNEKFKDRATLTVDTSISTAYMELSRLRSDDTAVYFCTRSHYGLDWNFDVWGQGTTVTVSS
Sequence (VL, as listed by the source, chain 2 of 2): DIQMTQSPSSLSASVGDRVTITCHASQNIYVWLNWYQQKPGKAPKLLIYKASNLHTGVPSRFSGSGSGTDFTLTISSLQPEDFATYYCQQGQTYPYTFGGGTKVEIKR
measurement.protocol: phage binding ELISA on captured anti-CD28 Fab, wells pre-incubated with CD28 antigen as competitor;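 note: crude clonal phage supernatants added to wells preloaded with CD28 antigen, bound phage read by HRP-conjugated anti-M13 antibody, control wells got blocking buffer alone without CD28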
outcome.measure: Anti-CD28 Fab signal in the presence of CD28 (phage binding ELISA)
Give bare numbers.

Could you tell me Anti-CD28 Fab signal in the presence of CD28 (phage binding ELISA) for each of these binders? They are listed below.
1. YCDGHAAMYMSKCL (Peptide-87 library clone, tested as clonal phage (peptide fused to pIII of the bacteriophage)) [Phage-1317]
2. YCEGHIKDYMTKCL (Peptide-87 library clone, tested as clonal phage (peptide fused to pIII of the bacteriophage)) [Phage-1322]
3. YCAGHAQEYMRKCL (Peptide-87 library clone, tested as clonal phage (peptide fused to pIII of the bacteriophage)) [Phage-1319]
4. YCDGHSTEYMWKCL (Peptide-87 library clone, tested as clonal phage (peptide fused to pIII of the bacteriophage)) [Phage-1321]

Result:
0.07
0.08
0.07
0.06

Request: Please give the measured Anti-CD28 Fab signal in the presence of CD28 (phage binding ELISA) for this binder: YCAGHDAEYMQKCL (Peptide-87 library clone, tested as clonal phage (peptide fused to pIII of the bacteriophage)) [Phage-1323]
Result: 0.06
